Tested on: PC-12
protocolSummary: cells
Assay type: functional
cond: Rattus norvegicus
viability at 10 µM under 50% gets yes, anything at or over 50% gets no.

Past entries and their recorded results:
Regarding O=c1c(O)c(-c2ccc(O)c(O)c2)oc2cc(O)cc(O)c12 [QUERCETIN] , kindly confirm whether its viability at 10 µM is beneath 50%. no

Decide: viability at 10 µM of `O=c1c2cc(NS(=O)(=O)c3c(Cl)cccc3Cl)ccc2nc2n1CCc1c-2[nH]c2ccccc12` strictly below 50%? yes

Please let me know if `O=c1c2cc(NS(=O)(=O)c3ccc(F)cc3)ccc2nc2n1CCc1c-2[nH]c2ccccc12` shows viability at 10 µM below 50%. yes

A record lists `O=c1c2cc(NS(=O)(=O)c3ccc(Br)s3)ccc2nc2n1CCc1c-2[nH]c2ccccc12` . Is its viability at 10 µM below 50%? no

We next turn to a different molecule, shown below.
Just wondering, is viability at 10 µM of `COc1ccc(S(=O)(=O)Nc2ccc3nc4n(c(=O)c3c2)CCc2c-4[nH]c3ccccc23)cc1OC` below 50%? yes

* * *

Acetylcholinesterase (Electrophorus electricus, UniProt O42275) pIC50 data
Sequence (O42275 whole entry): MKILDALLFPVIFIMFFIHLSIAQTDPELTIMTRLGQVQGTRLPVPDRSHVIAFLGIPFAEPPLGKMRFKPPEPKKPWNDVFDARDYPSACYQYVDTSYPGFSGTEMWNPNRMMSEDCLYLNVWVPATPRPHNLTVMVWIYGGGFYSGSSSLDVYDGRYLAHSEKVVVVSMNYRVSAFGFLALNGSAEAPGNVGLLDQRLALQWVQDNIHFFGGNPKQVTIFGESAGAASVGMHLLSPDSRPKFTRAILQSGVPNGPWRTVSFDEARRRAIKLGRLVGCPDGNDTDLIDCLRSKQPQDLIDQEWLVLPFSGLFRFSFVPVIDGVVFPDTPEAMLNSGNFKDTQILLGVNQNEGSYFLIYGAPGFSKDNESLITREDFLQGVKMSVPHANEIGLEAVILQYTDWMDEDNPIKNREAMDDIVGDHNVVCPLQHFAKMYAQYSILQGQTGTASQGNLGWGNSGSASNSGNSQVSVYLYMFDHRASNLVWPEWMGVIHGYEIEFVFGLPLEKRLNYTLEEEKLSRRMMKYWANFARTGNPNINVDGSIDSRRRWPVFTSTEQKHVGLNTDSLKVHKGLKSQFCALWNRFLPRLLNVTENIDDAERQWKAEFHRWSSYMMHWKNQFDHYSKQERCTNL
One number for each entry, as −log10 of the molar value.

Give pIC50 for each of the items listed below.
1. O=c1c2cc(NS(=O)(=O)c3cc(Cl)cc(Cl)c3)ccc2nc2n1CCc1c-2[nH]c2ccccc12
2. O=c1c2cc(NS(=O)(=O)c3ccc(F)c(Cl)c3)ccc2nc2n1CCc1c-2[nH]c2ccccc12
3. O=c1c2cc(NS(=O)(=O)c3c(Cl)cccc3Cl)ccc2nc2n1CCc1c-2[nH]c2ccccc12
4. O=c1c2cc(NS(=O)(=O)c3ccc(OC(F)(F)F)cc3)ccc2nc2n1CCc1c-2[nH]c2ccccc12
5. O=c1c2cc(NS(=O)(=O)c3ccc(Br)s3)ccc2nc2n1CCc1c-2[nH]c2ccccc12
6. COc1ccc(S(=O)(=O)Nc2ccc3nc4n(c(=O)c3c2)CCc2c-4[nH]c3ccccc23)c(OC)c1

1: 4.07; 2: 4.07; 3: 4.00; 4: 4.46; 5: 4.08; 6: 4.11

List pIC50 for every entry below, keeping the order given.
1. O=c1c2cc(NS(=O)(=O)c3ccc(Br)cc3)ccc2nc2n1CCc1c-2[nH]c2ccccc12
2. COc1ccc(S(=O)(=O)Nc2ccc3nc4n(c(=O)c3c2)CCc2c-4[nH]c3ccccc23)cc1OC

1. 4.39
2. 4.29

* * *

assayedSystem: Cholinesterase (Equus caballus)
Sequence (P81908 whole entry): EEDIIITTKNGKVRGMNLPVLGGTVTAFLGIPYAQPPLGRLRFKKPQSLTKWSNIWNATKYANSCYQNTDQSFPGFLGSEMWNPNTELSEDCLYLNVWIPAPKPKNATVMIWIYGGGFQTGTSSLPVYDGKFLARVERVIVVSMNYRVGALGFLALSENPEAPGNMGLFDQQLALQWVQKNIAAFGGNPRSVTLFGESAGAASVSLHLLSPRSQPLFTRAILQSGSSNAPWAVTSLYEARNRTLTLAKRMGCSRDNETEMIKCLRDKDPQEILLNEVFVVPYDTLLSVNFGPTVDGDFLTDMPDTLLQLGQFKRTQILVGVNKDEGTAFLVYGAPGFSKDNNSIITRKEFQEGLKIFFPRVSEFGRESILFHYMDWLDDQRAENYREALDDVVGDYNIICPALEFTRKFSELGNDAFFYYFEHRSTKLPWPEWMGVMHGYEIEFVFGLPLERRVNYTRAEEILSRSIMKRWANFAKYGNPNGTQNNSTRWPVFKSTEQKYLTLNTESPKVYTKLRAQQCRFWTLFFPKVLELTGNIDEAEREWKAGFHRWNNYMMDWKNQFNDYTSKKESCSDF
Kindly supply the reported log10 of IC50 values for the records listed here.
The common logarithm of IC50 in µM is what is listed.

Some compounds with known log10 of IC50 results, for comparison:
Quick one: log10 of IC50 of `COc1ccc(S(=O)(=O)Nc2ccc3nc4n(c(=O)c3c2)CCc2c-4[nH]c3ccccc23)c(OC)c1` ? 0.88

Consider the compound `O=c1c2cc(NS(=O)(=O)c3ccccc3OC(F)(F)F)ccc2nc2n1CCc1c-2[nH]c2ccccc12` and give its measured log10 of IC50. 0.56

So what's the measured log10 of IC50 for this one? `O=c1c2cc(NS(=O)(=O)c3ccc(OC(F)(F)F)cc3)ccc2nc2n1CCc1c-2[nH]c2ccccc12` 0.60

Request the reported log10 of IC50 associated with `O=c1c2cc(NS(=O)(=O)c3ccc(F)cc3)ccc2nc2n1CCc1c-2[nH]c2ccccc12` 0.88

Quick one: log10 of IC50 for `CC(C)(C)c1ccc(S(=O)(=O)Nc2ccc3nc4n(c(=O)c3c2)CCc2c-4[nH]c3ccccc23)cc1` ? 1.11

Would you kindly share the measured log10 of IC50 for `O=c1c2cc(NS(=O)(=O)c3c(Cl)cccc3Cl)ccc2nc2n1CCc1c-2[nH]c2ccccc12` ? 1.14

Requested field: log10 of IC50. Item: `O=c1c2cc(NS(=O)(=O)c3ccc(F)c(Cl)c3)ccc2nc2n1CCc1c-2[nH]c2ccccc12` 0.67

Reported log10 of IC50 for `O=c1c2cc(NS(=O)(=O)c3ccc(Cl)s3)ccc2nc2n1CCc1c-2[nH]c2ccccc12` : what is it? 1.89

Please state, for each entry, its recorded log10 of IC50.
1. O=c1c2cc(NS(=O)(=O)c3ccc(Br)s3)ccc2nc2n1CCc1c-2[nH]c2ccccc12
2. CC(=O)c1ccc(S(=O)(=O)Nc2ccc3nc4n(c(=O)c3c2)CCc2c-4[nH]c3ccccc23)cc1
3. COc1ccc(S(=O)(=O)Nc2ccc3nc4n(c(=O)c3c2)CCc2c-4[nH]c3ccccc23)cc1

[1.78, 1.41, 0.90]

// for each compound in input: emit log10 of IC50
1. O=c1c2cc(NS(=O)(=O)c3ccc(Br)cc3)ccc2nc2n1CCc1c-2[nH]c2ccccc12
2. O=c1c2cc(NS(=O)(=O)c3cccc([N+](=O)[O-])c3)ccc2nc2n1CCc1c-2[nH]c2ccccc12
3. O=c1c2cc(NS(=O)(=O)c3ccc([N+](=O)[O-])cc3)ccc2nc2n1CCc1c-2[nH]c2ccccc12
4. COc1ccc(S(=O)(=O)Nc2ccc3nc4n(c(=O)c3c2)CCc2c-4[nH]c3ccccc23)cc1OC
5. O=c1c2cc(NS(=O)(=O)c3ccc(C(F)(F)F)cc3)ccc2nc2n1CCc1c-2[nH]c2ccccc12
6. O=c1c2cc(NS(=O)(=O)c3cccc(C(F)(F)F)c3)ccc2nc2n1CCc1c-2[nH]c2ccccc12

1: 0.95; 2: 1.37; 3: 1.22; 4: 1.04; 5: 0.92; 6: 0.58

Given the entry `O=c1c2cc(NS(=O)(=O)c3cc(Cl)cc(Cl)c3)ccc2nc2n1CCc1c-2[nH]c2ccccc12` , report its measured log10 of IC50. 0.90

* * *

protocolSummary: n-Octanol-phosphate buffer partition co-efficient, log P of compound at pH 7.4 incubated for 48 hrs by UV spectrophotometry-based shake-flask method
Assay type: physicochemical
Exercise: for every item that follows, state its recorded logD at 48 h.
Numbers only.

The cases that follow already have their logD at 48 h on record.
Looking for the measured logD at 48 h of `O=c1c2cc(NS(=O)(=O)c3ccc(F)c(Cl)c3)ccc2nc2n1CCc1c-2[nH]c2ccccc12` , can you help? 2.81

Given the compound `O=c1c2cc(NS(=O)(=O)c3ccc(C(F)(F)F)cc3)ccc2nc2n1CCc1c-2[nH]c2ccccc12` , what is its reported logD at 48 h? 3.01

Form field: reported logD at 48 h of `O=c1c2cc(NS(=O)(=O)c3cccc(C(F)(F)F)c3)ccc2nc2n1CCc1c-2[nH]c2ccccc12` 3.01

Working through the 5 compounds below one at a time, give logD at 48 h for each.
1. O=c1c2cc(NS(=O)(=O)c3ccc(OC(F)(F)F)cc3)ccc2nc2n1CCc1c-2[nH]c2ccccc12
2. O=c1c2cc(NS(=O)(=O)c3ccc(Br)s3)ccc2nc2n1CCc1c-2[nH]c2ccccc12
3. O=c1c2cc(NS(=O)(=O)c3cc(Cl)cc(Cl)c3)ccc2nc2n1CCc1c-2[nH]c2ccccc12
4. O=c1c2cc(NS(=O)(=O)c3ccc(F)cc3)ccc2nc2n1CCc1c-2[nH]c2ccccc12
5. O=c1c2cc(NS(=O)(=O)c3ccccc3OC(F)(F)F)ccc2nc2n1CCc1c-2[nH]c2ccccc12

1: 3.62; 2: 2.91; 3: 3.21; 4: 2.25; 5: 3.62

* * *

System: PC-12
protocolSummary: cells
Assay type: functional
cond: Rattus norvegicus
Please assign not satisfied whenever viability at 10 µM is at or above 50%, and satisfied whenever it is below.

Here's what some known entries look like.
Please state whether viability at 10 µM is below 50% for `O=c1c2cc(NS(=O)(=O)c3ccc([N+](=O)[O-])cc3)ccc2nc2n1CCc1c-2[nH]c2ccccc12` satisfied

Dear reviewer, please state whether `O=c1c2cc(NS(=O)(=O)c3cc(Cl)cc(Cl)c3)ccc2nc2n1CCc1c-2[nH]c2ccccc12` has viability at 10 µM strictly beneath 50%. satisfied

In plain terms, does `O=c1c2cc(NS(=O)(=O)c3cccc(C(F)(F)F)c3)ccc2nc2n1CCc1c-2[nH]c2ccccc12` come in under 50% for viability at 10 µM? not satisfied

Could you please tell me whether viability at 10 µM recorded for `O=c1c2cc(NS(=O)(=O)c3ccc(Br)cc3)ccc2nc2n1CCc1c-2[nH]c2ccccc12` is less than 50%? satisfied

# check: viability at 10 µM < 50% for `CC(=O)c1ccc(S(=O)(=O)Nc2ccc3nc4n(c(=O)c3c2)CCc2c-4[nH]c3ccccc23)cc1` not satisfied

Further cases:
Lab note: confirm whether the reported viability at 10 µM for this molecule is below 50%, equality not counting. molecule: `O=c1c2cc(NS(=O)(=O)c3ccc(Cl)s3)ccc2nc2n1CCc1c-2[nH]c2ccccc12` not satisfied

* * *

Please provide measured IC50 for the entries that follow.
assayedSystem: UniProtKB O42275

Hi! Can you tell me IC50 for each of these molecules?
1. COC(=O)c1sccc1S(=O)(=O)Nc1ccc2nc3n(c(=O)c2c1)CCc1c-3[nH]c2ccccc12
2. O=c1c2cc(NS(=O)(=O)c3cccs3)ccc2nc2n1CCc1c-2[nH]c2ccccc12
3. CC(C)(C)c1ccc(S(=O)(=O)Nc2ccc3nc4n(c(=O)c3c2)CCc2c-4[nH]c3ccccc23)cc1
4. O=c1c2cc(NS(=O)(=O)c3ccc(F)cc3)ccc2nc2n1CCc1c-2[nH]c2ccccc12

1: > 100 µM; 2: > 100 µM; 3: > 100 µM; 4: > 100 µM

Items follow; give IC50 for each.
1. O=c1c2cc(NS(=O)(=O)c3ccc(Cl)s3)ccc2nc2n1CCc1c-2[nH]c2ccccc12
2. CC(=O)c1ccc(S(=O)(=O)Nc2ccc3nc4n(c(=O)c3c2)CCc2c-4[nH]c3ccccc23)cc1

> 100 µM
> 100 µM
